B1: glmS ribozyme (parent)
chain: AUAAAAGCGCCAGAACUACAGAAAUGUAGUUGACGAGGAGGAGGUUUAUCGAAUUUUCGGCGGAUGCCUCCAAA

- Variants of: B1
- METHOD: self-cleavage kobs at 2500 uM GlcN6P; higher = faster cleavage; RNA array
- CONDITION INFO: with glucosamine-6-phosphate
Fewer inactive variants are shown than the library holds.
# key: entry, value: self-cleavage kobs at 2500 uM GlcN6P

As a guide, the following entries are already answered.
>>> observed_result("G38C G41U A42G")
"< 1e-05 s⁻¹"
>>> observed_result("C10U G41A")
"< 1e-05 s⁻¹"
>>> observed_result("A14U U45G U47A U54C G62U")
"< 1e-05 s⁻¹"
>>> observed_result("A12G G29U G37C")
"< 1e-05 s⁻¹"

Lab note: A52C G62C gave self-cleavage kobs at 2500 uM GlcN6P of < 1e-05 s⁻¹

Lab note: G44A U46C U49C U54G C67G gave self-cleavage kobs at 2500 uM GlcN6P of < 1e-05 s⁻¹

Lab note: G40U A48C C50U gave self-cleavage kobs at 2500 uM GlcN6P of < 1e-05 s⁻¹

Lab note: G7A C34A gave self-cleavage kobs at 2500 uM GlcN6P of < 1e-05 s⁻¹

Lab note: C34A U49G gave self-cleavage kobs at 2500 uM GlcN6P of < 1e-05 s⁻¹

Lab note: A12G G40U C67U gave self-cleavage kobs at 2500 uM GlcN6P of < 1e-05 s⁻¹

Lab note: A39C G40U G44A U55C U65G gave self-cleavage kobs at 2500 uM GlcN6P of < 1e-05 s⁻¹

Lab note: G32U G35A A42C gave self-cleavage kobs at 2500 uM GlcN6P of < 1e-05 s⁻¹

Lab note: G43U U54A C58U G59C C61G G62C A64G U65A G66U gave self-cleavage kobs at 2500 uM GlcN6P of < 1e-05 s⁻¹

Lab note: C16G U31A C34A gave self-cleavage kobs at 2500 uM GlcN6P of < 1e-05 s⁻¹

Lab note: U45G U46G U55C G63A gave self-cleavage kobs at 2500 uM GlcN6P of < 1e-05 s⁻¹

Lab note: G43A G44A gave self-cleavage kobs at 2500 uM GlcN6P of < 1e-05 s⁻¹

Lab note: G35A G43U gave self-cleavage kobs at 2500 uM GlcN6P of < 1e-05 s⁻¹

Lab note: G7U C8G A12U U49G gave self-cleavage kobs at 2500 uM GlcN6P of < 1e-05 s⁻¹

Lab note: G38U A39G C58U G59U gave self-cleavage kobs at 2500 uM GlcN6P of < 1e-05 s⁻¹

Lab note: G32U G44C U47G gave self-cleavage kobs at 2500 uM GlcN6P of < 1e-05 s⁻¹

Lab note: G32C G40A A53C gave self-cleavage kobs at 2500 uM GlcN6P of < 1e-05 s⁻¹
